# Method summary: Selectivity index, ratio of IC50 for human A431 cells to MIC>99 for antimycobacterial activity against Mycobacterium kansasii 6509/96 after 7 days
# Type: toxicity
# Experimental parameters: read-out: Selectivity Index
Observed property: selectivity ratio at 168 h

INPUT: Entry O=[N+]([O-])c1cc(-c2nnc(SCc3ccccc3)n2Cc2ccccc2)cc(C(F)(F)F)c1 : reported selectivity ratio at 168 h = ?
OUTPUT: > 100

* * *

# Method summary: Selectivity index, ratio of IC50 for human HepG2 cells to MIC>99 for antimycobacterial activity against Mycobacterium kansasii CNCTC My 235/80 after 7 days
# Type: toxicity
# Experimental parameters: read-out: Selectivity Index
Observed property: selectivity ratio at 168 h

INPUT: Entry O=[N+]([O-])c1cc(-c2nnc(SCc3ccccc3)n2Cc2ccccc2)cc(C(F)(F)F)c1 : reported selectivity ratio at 168 h = ?
OUTPUT: > 100

* * *

# Tested on: Mycobacterium kansasii
# Method summary: Antimycobacterial activity against Mycobacterium kansasii 6509/96 after 21 days
# Assay type: functional
# Experimental parameters: 6509/96, 504 h
Can you tell me MIC99 for the items I'm about to list?

INPUT: Entry O=C(NNC(=S)NCc1ccccc1)c1cc([N+](=O)[O-])cc([N+](=O)[O-])c1 : reported MIC99 = ?
OUTPUT: 16 µM

INPUT: Entry O=[N+]([O-])c1cc(Cn2c(SCc3ccccc3)nnc2-c2ccccc2)cc([N+](=O)[O-])c1 : reported MIC99 = ?
OUTPUT: 16 µM

INPUT: Entry O=[N+]([O-])c1cc(CSc2nnc(-c3ccccc3)[nH]2)cc([N+](=O)[O-])c1 : reported MIC99 = ?
OUTPUT: 16 µM

INPUT: Entry O=[N+]([O-])c1cc(-c2nnc(SCc3ccc(Cl)cc3)n2Cc2ccccc2)cc([N+](=O)[O-])c1 : reported MIC99 = ?
OUTPUT: 0.125 µM

INPUT: Entry COc1ccc(-c2nnc(SCc3cc([N+](=O)[O-])cc([N+](=O)[O-])c3)n2Cc2ccccc2)cc1 : reported MIC99 = ?
OUTPUT: 8 µM

INPUT: Entry O=[N+]([O-])c1cc(Cn2c(SCc3ccc(Cl)cc3)nnc2-c2ccccc2)cc([N+](=O)[O-])c1 : reported MIC99 = ?
OUTPUT: 32 µM

* * *

# Method summary: Selectivity index, ratio of IC50 for human A431 cells to MIC>99 for antimycobacterial activity against Mycobacterium tuberculosis H37Rv CNCTC My 331/88 after 14 days
# Format: toxicity
# Experimental parameters: read-out: Selectivity Index
Observed property: selectivity ratio at 336 h

INPUT: Entry O=[N+]([O-])c1cc(-c2nnc(SCc3ccccc3)n2Cc2ccccc2)cc(C(F)(F)F)c1 : reported selectivity ratio at 336 h = ?
OUTPUT: > 100

* * *

# Method summary: Selectivity index, ratio of IC50 for human A431 cells to MIC>99 for antimycobacterial activity against Mycobacterium tuberculosis H37Rv CNCTC My 331/88 after 21 days
# Type: toxicity
# Experimental parameters: read-out: Selectivity Index
Observed property: selectivity ratio at 504 h

INPUT: Entry O=[N+]([O-])c1cc(-c2nnc(SCc3ccccc3)n2Cc2ccccc2)cc(C(F)(F)F)c1 : reported selectivity ratio at 504 h = ?
OUTPUT: > 100

* * *

# Method summary: Selectivity index, ratio of IC50 for human HepG2 cells to MIC>99 for antimycobacterial activity against XDR Mycobacterium tuberculosis Praha 131 after 14 days
# Assay type: toxicity
# Experimental parameters: read-out: Selectivity Index
Observed property: selectivity ratio at 336 h

INPUT: Entry O=[N+]([O-])c1cc(-c2nnc(SCc3ccccc3)n2Cc2ccccc2)cc(C(F)(F)F)c1 : reported selectivity ratio at 336 h = ?
OUTPUT: > 100

* * *

# System: Staphylococcus aureus
# Method summary: Antibacterial activity against methicillin-resistant Staphylococcus aureus subsp. aureus ATCC 43300 CCM 4750 at highest concentration measured after 24 to 48 hrs by alamar blue dye based broth microdilution assay
# Format: functional, organism-based
Activity calls are given as the source filed them. The rule behind the calls is not given here.
Observed property: Activity

COc1ccc(-c2nnc(SCc3cc([N+](=O)[O-])cc([N+](=O)[O-])c3)n2Cc2ccccc2)cc1 | inactive
O=[N+]([O-])c1cc(CSc2nnc(-c3ccccc3)n2Cc2ccc(Cl)cc2Cl)cc([N+](=O)[O-])c1 | inactive
O=[N+]([O-])c1cc(-c2nnc(SCc3ccc(Cl)cc3)n2Cc2ccccc2)cc([N+](=O)[O-])c1 | inactive
COc1ccc(CSc2nnc(-c3cc([N+](=O)[O-])cc([N+](=O)[O-])c3)n2Cc2ccccc2)cc1 | inactive

As a next step, examine the compound that follows.
INPUT: Entry Cn1c(SCc2ccccc2)nnc1-c1cc([N+](=O)[O-])cc([N+](=O)[O-])c1 : reported Activity = ?
OUTPUT: inactive

* * *

# Method summary: Selectivity index, ratio of IC50 for human HepG2 cells to MIC>99 for antimycobacterial activity against Mycobacterium avium CNCTC My 330/88 after 21 days
# Assay type: toxicity
# Experimental parameters: read-out: Selectivity Index
Observed property: selectivity ratio at 504 h

INPUT: Entry O=[N+]([O-])c1cc(-c2nnc(SCc3ccccc3)n2Cc2ccccc2)cc(C(F)(F)F)c1 : reported selectivity ratio at 504 h = ?
OUTPUT: > 100

* * *

# Test system: A-431
# Method summary: Cytotoxicity against human A431 cells assessed as reduction in cell viability after 48 hrs by CellTiter 96 aqueous one solution assay
# Type: cell-based
# Experimental parameters: A-431, 48 h
pIC50: −log10 of the molar value.
Observed property: pIC50

INPUT: Entry CCCCCCn1c(SCc2ccccc2)nnc1-c1cc([N+](=O)[O-])cc([N+](=O)[O-])c1 : reported pIC50 = ?
OUTPUT: < 4.52

INPUT: Entry CCCSc1nnc(-c2cc([N+](=O)[O-])cc([N+](=O)[O-])c2)n1Cc1ccccc1 : reported pIC50 = ?
OUTPUT: < 4.52

INPUT: Entry O=[N+]([O-])c1cc(CSc2nnc(-c3ccccc3)n2-c2ccc(Cl)c(Cl)c2)cc([N+](=O)[O-])c1 : reported pIC50 = ?
OUTPUT: < 4.52

INPUT: Entry CCn1c(SCc2ccccc2)nnc1-c1cc([N+](=O)[O-])cc([N+](=O)[O-])c1 : reported pIC50 = ?
OUTPUT: < 4.52

INPUT: Entry O=[N+]([O-])c1cc(-c2nnc(SCc3ccc(Cl)cc3)n2Cc2ccccc2)cc(C(F)(F)F)c1 : reported pIC50 = ?
OUTPUT: < 4.52

INPUT: Entry O=[N+]([O-])c1cc(-c2nnc(SCc3ccc(Br)cc3)n2Cc2ccccc2)cc([N+](=O)[O-])c1 : reported pIC50 = ?
OUTPUT: < 4.52

INPUT: Entry Cn1c(SCc2ccc(Cl)c(Cl)c2)nnc1-c1cc([N+](=O)[O-])cc([N+](=O)[O-])c1 : reported pIC50 = ?
OUTPUT: < 4.52

INPUT: Entry Cn1c(SCc2ccc(Br)cc2)nnc1-c1cc([N+](=O)[O-])cc([N+](=O)[O-])c1 : reported pIC50 = ?
OUTPUT: < 4.52

INPUT: Entry COc1ccc(CSc2nnc(-c3cc([N+](=O)[O-])cc(C(F)(F)F)c3)n2Cc2ccccc2)cc1 : reported pIC50 = ?
OUTPUT: < 4.52

INPUT: Entry O=[N+]([O-])c1cc(-c2nnc(SCc3ccccc3)n2Cc2ccccc2)cc(C(F)(F)F)c1 : reported pIC50 = ?
OUTPUT: 5.00

INPUT: Entry O=[N+]([O-])c1cc(CSc2nnc(-c3ccccc3)n2Cc2ccccc2)cc([N+](=O)[O-])c1 : reported pIC50 = ?
OUTPUT: < 4.52

INPUT: Entry O=[N+]([O-])c1cc(CSc2nnc(-c3ccc(Cl)cc3)n2Cc2ccccc2)cc(C(F)(F)F)c1 : reported pIC50 = ?
OUTPUT: < 4.52

INPUT: Entry O=[N+]([O-])c1cc(CSc2nnc(-c3ccc(Cl)cc3)n2Cc2ccccc2)cc([N+](=O)[O-])c1 : reported pIC50 = ?
OUTPUT: < 4.52

INPUT: Entry O=[N+]([O-])c1cc(-c2nnc(SCc3ccccc3)n2Cc2ccccc2)cc([N+](=O)[O-])c1 : reported pIC50 = ?
OUTPUT: < 4.52

INPUT: Entry COc1ccc(Cn2c(SCc3cc([N+](=O)[O-])cc([N+](=O)[O-])c3)nnc2-c2ccccc2)cc1 : reported pIC50 = ?
OUTPUT: < 4.52

INPUT: Entry COc1ccc(CSc2nnc(-c3cc([N+](=O)[O-])cc([N+](=O)[O-])c3)n2Cc2ccccc2)cc1 : reported pIC50 = ?
OUTPUT: < 4.52

INPUT: Entry O=[N+]([O-])c1cc(CSc2nnc(C3CCCCC3)n2Cc2ccccc2)cc(C(F)(F)F)c1 : reported pIC50 = ?
OUTPUT: < 4.52
